System: in vivo angiogenesis, blood vessel count
Assay: reduction of blood vessel formation in vivo – HTS, in vivo study (AID 732);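 also: zebrafish embryos dosed at one day post fertilization; 0% = reference inhibitor and 100% = plate mean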
Conditions: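 tested at 30 µM in the well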
Activity calls are given as the source filed them. No rule for the calls is given here.
Returns: one label drawn from active, inactive

Compound	Category
CC(C)(C)c1ccc(S(=O)(=O)/C=C/C#N)cc1	inactive
NC(CCCP(=O)(O)O)C(=O)O (centres undefined)	inactive
O=C1NC(=O)C(c2ccccc2[N+](=O)[O-])=C1Nc1ccc(O)c(Cl)c1	inactive

What was the test verdict on `CCCCCCCCCCCCCCCC(=O)NCCO` ?
inactive

What was the test verdict on `Cc1cn([C@H]2C[C@@H](N=[N+]=[N-])[C@@H](CO)O2)c(=O)[nH]c1=O` ?
inactive

* * *

Test system: in vivo angiogenesis, blood vessel count
Experiment: reduction of blood vessel formation in vivo – HTS, in vivo study (AID 732)
Settings: hits give low values;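 tested at 30 µM in the well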
Reported Property: vessel count % control (%)
A number alone suffices; assume %.

Recorded vessel count % control, per entry:
Compound	Units Text	Observed Value
CNCCC(Oc1ccc(C(F)(F)F)cc1)c1ccccc1 (centres undefined)	%	74.2
O=[N+]([O-])c1ccc(CSc2ncnc3c2ncn3[C@@H]2O[C@H](CO)[C@H](O)C2O)cc1 (some centres undefined)	%	80.2
Oc1cc2c(cc1O)C(c1ccccc1)CNCC2 (centres undefined)	%	85.1

Now take the following compound into account.
Let me know recorded vessel count % control for `Nc1ccncc1` , thanks.
118

* * *

System: in vivo angiogenesis, blood vessel count
Assay: reduction of blood vessel formation in vivo – HTS, in vivo study (AID 732)
Details: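 tested at 30 µM in the well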
Calls of active or inactive are those of the source. No rule for the calls is given here.
Returns: one label drawn from 1.0 = active, 0.0 = inactive

Example entries begin here.
Molecule	Measured On	Category
NC(N)=NC(N)=Nc1ccccc1	in vivo angiogenesis, blood vessel count	0.0
O=C1O/C(=C/Br)CCC1c1cccc2ccccc12 (stereo not drawn)	in vivo angiogenesis, blood vessel count	0.0
Oc1ccc(C2CNCc3sccc32)cc1O (stereo not drawn)	in vivo angiogenesis, blood vessel count	0.0

What was the test verdict on CSc1nc(N)c2ncn([C@@H]3O[C@H](COP(=O)(O)OP(=O)(O)O)[C@H](O)C3O)c2n1 (stereo partly drawn) ?
0.0

What was the test verdict on `NC(=O)c1cnccn1` ?
0.0

What was the test verdict on `CCCCCCC(C)(C)c1ccc([C@@H]2C[C@H](O)CC[C@H]2CCCO)c(O)c1` ?
0.0

* * *

The reader will find reported vessel count % control values listed item by item below.
System: in vivo angiogenesis, blood vessel count
Test: reduction of blood vessel formation in vivo – HTS, in vivo study (AID 732)
Conditions: hits give low values;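 tested at 30 µM in the well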
Active and inactive are the calls of the source. No rule for the calls is given here.

Recorded vessel count % control, per entry:
Compound	Observed Value
C=C[C@H]1CN2CCC1C[C@@H]2[C@@H](O)c1ccnc2ccc(OC)cc12 (stereo partly specified)	149% (inactive)
NC1(C(=O)O)CCCCC1	110% (inactive)
CC(=O)Oc1ccccc1C(=O)O	105% (inactive)
N[C@H](CCC(=O)NCS(=O)(=O)O)C(=O)O	102% (inactive)
O=C1CCC(N2C(=O)c3ccccc3C2=O)C(=O)N1 (stereo unspecified)	108% (inactive)

Let me know recorded vessel count % control for `Cc1sc2ccccc2c1CC1=NCCN1` , thanks.
92.5% (inactive)

Let me know recorded vessel count % control for `CCn1cc(C(=O)O)c(=O)c2cc3c(cc21)OCO3` , thanks.
121% (inactive)

Let me know recorded vessel count % control for CCC1(O)CC2CN(CCc3c([nH]c4ccccc34)[C@@](C(=O)OC)(c3cc4c(cc3OC)N(C)C3[C@]45CCN4CC=C[C@@](CC)([C@@H](OC(C)=O)[C@]3(O)C(=O)OC)[C@H]45)C2)C1 (stereo partly specified) , thanks.
112% (inactive)

Let me know recorded vessel count % control for `O=c1c(O)c(-c2ccc(O)c(O)c2)oc2cc(O)cc(O)c12` , thanks.
115% (inactive)

Let me know recorded vessel count % control for `N[C@H](C(=O)O)[C@H](O)C(=O)O` , thanks.
90.4% (inactive)

Let me know recorded vessel count % control for `O=c1[nH]oc2c1CCNC2` , thanks.
103% (inactive)

* * *

Tested on: in vivo angiogenesis, blood vessel count
Assay: reduction of blood vessel formation in vivo – HTS, in vivo study (AID 732)
Settings: hits give low values;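 tested at 30 µM in the well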
Reported Property: vessel count % control (%)
A number alone suffices; assume %.

Recorded vessel count % control, per entry:
Molecule	vessel count % control [%]
Cc1cnc(NC(=O)C2=C(O)c3ccccc3S(=O)(=O)N2C)s1	136
CCCCC/C=C\CC(O)/C=C/c1cccc(CC(O)CCCCO)n1 (stereo unspecified)	100
C1CCc2nnnn2CC1	79
O=c1c(O)c(-c2cc(O)c(O)c(O)c2)oc2cc(O)cc(O)c12	87.9
N=c1nc(N2CCCCC2)cc(N)n1O	114

Let me know recorded vessel count % control for `N=C(N)SCCN` , thanks.
110

* * *

The reader will find reported vessel count % control values listed item by item below.
System: in vivo angiogenesis, blood vessel count
Assay: reduction of blood vessel formation in vivo – HTS, in vivo study (AID 732)
Conditions: hits give low values;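 tested at 30 µM in the well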
A number alone suffices; assume %.

Compound	Units Text	Observed Value
CCCCC1C(=O)N(c2ccccc2)N(c2ccccc2)C1=O	%	93.9
CC(C)NC[C@@H](O)c1ccc(O)c(O)c1	%	108
CC1(NCC(O)COc2cccc3[nH]ccc23)CCC(C(C)(C)NC(=O)CBr)CC1 (stereo not given)	%	124

Now take the following compound into account.
Let me know recorded vessel count % control for COc1ccc(CCN(C)CCCC(C#N)(c2cc(OC)c(OC)c(OC)c2)C(C)C)cc1OC (stereo not given) , thanks.
102

* * *

Tested on: in vivo angiogenesis, blood vessel count
Assay: reduction of blood vessel formation in vivo – HTS, in vivo study (AID 732);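 also: zebrafish embryos dosed at one day post fertilization; 0% = reference inhibitor and 100% = plate mean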
Settings: hits give low values;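 tested at 30 µM in the well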
Active and inactive are the calls of the source. No rule for the calls is given here.
Reported Property: vessel count % control

Compound	Measured On	vessel count % control
O=P(O)(O)C(Cl)(Cl)P(=O)(O)O	in vivo angiogenesis, blood vessel count	110% (inactive)
CN(C)c1cc2c(Nc3ccc4c(cnn4Cc4ccccc4)c3)ncnc2cn1	in vivo angiogenesis, blood vessel count	84.7% (inactive)
CCCCc1ccc(C(=O)O)nc1	in vivo angiogenesis, blood vessel count	115% (inactive)
O=c1c(O)c(-c2ccc(O)cc2O)oc2cc(O)cc(O)c12	in vivo angiogenesis, blood vessel count	108% (inactive)

Let me know recorded vessel count % control for `CCCN1CCC[C@@H]2Cc3nc(N)ncc3C[C@H]21` , thanks.
107% (inactive)

* * *

System: in vivo angiogenesis, blood vessel count
Experiment: reduction of blood vessel formation in vivo – HTS, in vivo study (AID 732);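 also: zebrafish embryos dosed at one day post fertilization; 0% = reference inhibitor and 100% = plate mean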
Conditions: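 tested at 30 µM in the well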
Activity calls are given as the source filed them. How the calls were made is not given here.
Returns: one label drawn from class 1 for active, class 0 for inactive

Example entries begin here.
Compound	Category
O=C1c2ccccc2-c2n[nH]c3cccc1c23	class 0
COc1ccccc1N1CCN(CCN2C(=O)CC3(CCCC3)CC2=O)CC1	class 0
CC(N)=NCc1cccc(CN)c1	class 0
c1ccc2nc(C3=NCCN3)ccc2c1	class 0
CN=C(NC#N)NCCSCc1nc[nH]c1C	class 0
N.N.O=C(O)C1(C(=O)O)CCC1.[Pt+2]	class 0
Nc1ncnc2c1nc(Br)n2C1OC2COP(=O)(O)O[C@@H]2C1O (some centres not stated)	class 0
CN1CCN(CC/C=C2/c3ccccc3Sc3ccc(S(=O)(=O)N(C)C)cc32)CC1	class 0
NOCC(=O)O	class 0
CC(C)c1cccc(C(C)C)c1O	class 0

Attention now shifts to the item below.
What was the test verdict on `CCCn1cnc2c1c(=O)n(CCCCC(C)=O)c(=O)n2C` ?
class 0

* * *

The reader will find reported vessel count % control values listed item by item below.
Tested on: in vivo angiogenesis, blood vessel count
Test: reduction of blood vessel formation in vivo – HTS, in vivo study (AID 732);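 also: zebrafish embryos dosed at one day post fertilization; 0% = reference inhibitor and 100% = plate mean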
Conditions: hits give low values;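 tested at 30 µM in the well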
A number alone suffices; assume %.

Compound	Units Text	vessel count % control
NC(N)=NC(N)=Nc1cccc(Cl)c1	%	103

Provide the reported vessel count % control (system: in vivo angiogenesis, blood vessel count) for `COc1cccc(C(=O)NCCN2CCN(c3ccc(Cl)cc3)CC2)c1`
66.6

Provide the reported vessel count % control (system: in vivo angiogenesis, blood vessel count) for CNCC(O)c1ccc(O)c(O)c1 (stereo unspecified)
123

Provide the reported vessel count % control (system: in vivo angiogenesis, blood vessel count) for `CC(C)(C)c1cc(C=C(C#N)C#N)cc(C(C)(C)C)c1O`
0

Provide the reported vessel count % control (system: in vivo angiogenesis, blood vessel count) for CCCC1O[C@@H]2C[C@H]3[C@@H]4CCC5=CC(=O)C=C[C@]5(C)[C@H]4[C@@H](O)C[C@]3(C)[C@]2(C(=O)CO)O1 (stereo partly specified)
120
